target desc: UniProt Q9QUQ5
Sequence (Q9QUQ5 whole entry): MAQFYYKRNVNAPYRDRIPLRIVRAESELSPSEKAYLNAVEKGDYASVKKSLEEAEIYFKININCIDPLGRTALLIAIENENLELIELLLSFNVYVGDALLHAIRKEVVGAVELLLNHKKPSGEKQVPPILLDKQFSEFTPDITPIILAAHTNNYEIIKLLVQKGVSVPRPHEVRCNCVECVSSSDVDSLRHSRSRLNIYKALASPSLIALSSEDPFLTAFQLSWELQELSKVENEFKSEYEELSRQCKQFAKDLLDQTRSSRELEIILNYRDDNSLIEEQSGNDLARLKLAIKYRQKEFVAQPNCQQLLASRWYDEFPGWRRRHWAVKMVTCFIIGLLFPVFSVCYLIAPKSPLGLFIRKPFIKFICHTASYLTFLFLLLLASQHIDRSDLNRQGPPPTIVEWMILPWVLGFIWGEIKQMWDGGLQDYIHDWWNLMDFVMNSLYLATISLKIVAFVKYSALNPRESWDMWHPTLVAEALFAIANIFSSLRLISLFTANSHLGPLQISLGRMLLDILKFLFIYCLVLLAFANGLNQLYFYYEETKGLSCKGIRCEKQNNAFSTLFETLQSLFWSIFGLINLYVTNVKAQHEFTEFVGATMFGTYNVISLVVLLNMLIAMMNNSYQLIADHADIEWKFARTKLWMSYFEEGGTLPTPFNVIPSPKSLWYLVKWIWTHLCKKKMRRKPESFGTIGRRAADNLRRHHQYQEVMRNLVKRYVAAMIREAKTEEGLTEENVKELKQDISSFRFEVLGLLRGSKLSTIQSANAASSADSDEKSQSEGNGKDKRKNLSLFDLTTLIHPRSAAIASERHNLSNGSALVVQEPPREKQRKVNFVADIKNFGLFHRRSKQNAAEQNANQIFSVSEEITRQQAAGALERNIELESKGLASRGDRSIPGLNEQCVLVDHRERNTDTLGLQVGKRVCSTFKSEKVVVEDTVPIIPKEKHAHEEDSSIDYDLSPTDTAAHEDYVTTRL
assay remarks: calcium entry via TRPC4 opening agents – cell-based, HEK293 TRPC4/mu-opioid, Fluo-4 calcium, dose response (AID 434937)
Type: functional
Active and inactive are the calls of the source. How the calls were made is not given here.
assay readout: EC50

Take a look at these entries with their results.
{"molecule": "Cc1sc2ncnc(NCC(c3ccco3)N3CCCC3)c2c1C (centres undefined)", "target desc": "UniProt Q9QUQ5", "assay readout": "EC50", "reported result": "17.3 nM (active)"}
{"molecule": "COc1ccc(CCNCc2ccc(SC)cc2)cc1", "target desc": "UniProt Q9QUQ5", "assay readout": "EC50", "reported result": "5310 nM (active)"}
{"molecule": "CN(C)C(CNC(=O)Cc1ccc(Br)cc1)c1ccccc1 (centres undefined)", "target desc": "UniProt Q9QUQ5", "assay readout": "EC50", "reported result": "105 nM (active)"}

Please look at the following molecule next.
Input line: Answer with reported EC50 of CCCCN(CC)CCNC(=O)Cn1cc2c(n1)-c1c(oc(C(=O)N3CCCC3)c1C)CC2
Output line: 267 nM (active)
